Test system: MS2 coat protein
RUN DESCRIPTION: apparent Kd, MS2 coat protein; higher = weaker binding; RNA-MaP array; FMN 200 µM where present
MEASUREMENT SETUP: designed as: OFF switch for flavin mononucleotide; no ligand
Each entry below carries its recorded apparent Kd.
Only the number, expressed in nM, is required.

A selection of reference data follows.
| SEQ STRING | MEASURED ON | apparent Kd, nM |
| --- | --- | --- |
| UCACGGGAUUGAGGAUAUAUAUUAAUUUUUACAAUAGAAGGCAAAUUUUUAGUUUUUUCACUUUACAUGAGGAUCACCCAUGUU | MS2 coat protein | 27.5 |
| ACUAGUUGGUAAGGAUAUCCUACACUAUUCUGACCCGUGCAAGCUACAUGAGGAUCACCCAUGUGGGAGAAGGUGCGUCAACGU | MS2 coat protein | 11 |
| GUGCGGUAGGAGAAGGACGGAGGCUUCUUUACAUACAUGAGGAUCACCCAUGUAGGAUAUCCUACCUCACGCGGCCUCCUUCUG | MS2 coat protein | 5.4 |
| UCGUUUUUUGAGGAUAUGCGACGUUCCUUCGUCGUAGAAGGCGAUACAUGAGGAUCACCCAUGUUUAUGGGCAU | MS2 coat protein | 108 |
| GUCAGCUCGUGAGGAUAUACAUGUGCUGGAUACAGCACUAUUGUGUUCACAUGAGGAUCACCCAUGUAGAAGGCACGAGCUGAU | MS2 coat protein | 17.7 |

*Q* Param readout= apparent Kd; system= MS2 coat protein; entry= UCAGGCUUCGAGAAGGACAUGAGGAUCACCCAUGUUAGUGUGAAGCAGCCGUGAGGCUGCAUCAUGUAGGAUAUCGGAGUCUGC ; returns value.
*A* 25.5

*Q* Would you kindly repeat that for UAUUAUUUAUGAUAUUAUGACAGUAGAAGGCUAUACAUGUUGAUACAUGAGGAUCACCCAUGUAUAGAGGAUAUAUACAUAAAU ?
*A* 1010

*Q* Would you kindly repeat that for CUCUUGUGAGGAUAUCAGUAGUAAAAAAAUAAAAUUACUACUGAGAAGGCACAUGAGGAUCACCCAUGUGACUU ?
*A* 26.2

*Q* Would you kindly repeat that for AUUUUGUGAGGAUAUGUGGCUUCGAUCGUGAAAACGAGGCUACAGAAGGCACAUGAGGAUCACCCAUGUUCCUA ?
*A* 20.5

*Q* Would you kindly repeat that for CACCGUUACGUAGGAUAUAGUACAUGAGGAUCACCCAUGUAAUAAAUGAGAAUUUCGGAUGUAUGCUAGAAGGACGAAAUCGGC ?
*A* 53

*Q* Would you kindly repeat that for CUUUUGUGAGGAUAUUAUUAGUAAAUAAAUAAAAUUACUACUGAGAAGGCACAUGAGGAUCACCCAUGUUCCUC ?
*A* 24.3

*Q* Would you kindly repeat that for UUUUGACAUGAGGAUCACCCAUGUCAGGAUAUAGUAGGACAAAUAAAUAAAAGUUCUACUAGAAGGGAUAUGGA ?
*A* 23.2

---

Test system: MS2 coat protein
RUN DESCRIPTION: apparent Kd, MS2 coat protein; higher = weaker binding; RNA-MaP array; FMN 200 µM where present
MEASUREMENT SETUP: designed as: OFF switch for flavin mononucleotide; no ligand
Each entry below carries its recorded apparent Kd.
Entry format: amount then unit.

| SEQ STRING | MEASURED ON | apparent Kd |
| --- | --- | --- |
| CACAAGAAAGUCGAAGGUUGAAGUAGAAGGACUAUAACAUGACAUGAGGAUCACCCAUGUGCCAAGUAGGAUAUGCUUUAAUCG | MS2 coat protein | 7.7 nM |
| GCAGGUUAAGUCAGGAUAUACCUAUGGAUACAUAGGUAGAAGGGACAUGAGGAUCACCCAUGUUCCUCACCUGC | MS2 coat protein | 15.6 nM |
| GGAUGACAAAGUCAUCCAUAACGAACAUGAGGAUCACCCAUGUAGGAUAUGCUAGUCAAAGACUAGCAGAAGGACAUGUGUCUU | MS2 coat protein | 36.4 nM |
| UGUCGGAGAAGAGGAUAUUACAUGAGGAUCACCCAUGUAUGAACCAAUAGCUGGAAACAGCAAUGUAAGAAGGCUGCUCCGACA | MS2 coat protein | 5.32 nM |

*Q* Param readout= apparent Kd; system= MS2 coat protein; entry= UUUAUGUCAGGAUAUGAGGAGUAGAACAAUAGUACUACUCCUCAGAAGGGACAUGAGGAUCACCCAUGUUCCUC ; returns value.
*A* 20.7 nM

*Q* Would you kindly repeat that for GGAUCGAUAGUGAGGAUAUACCACUGGAUACAGUGGUAGAAGGCACAUGAGGAUCACCCAUGUCCUAACGAUCC ?
*A* 20.6 nM

*Q* Would you kindly repeat that for GGAUAGGACAGAGGAUAUACGUGCUAGAGAUACUAGCAAAAUUUCCUCACAUGAGGAUCACCCAUGUAGAAGGCUGUCCUUUCG ?
*A* 17.9 nM

*Q* Would you kindly repeat that for ACUAGAUGAGGAUAUGCACAUUUUAGUGUUCCUCUAGAUUAACAUGAGGAUCACCCAUGUAGAAGGCGUCAAUU ?
*A* 45.7 nM

*Q* Would you kindly repeat that for CGUAUACAUGAGGAUCACCCAUGUGAGGAUAUGCUUUAUUAUUAUUAUUAUUAUUGUUGCAGAAGGUACAUUGC ?
*A* 23.5 nM

*Q* Would you kindly repeat that for GGUUGGCGAGGAUAUACAUGAGGAUCACCCAUGUGGUCCUGAGAUAGAAUAGACCUUUGUAGAAGGCGCGGGUC ?
*A* 172 nM

*Q* Would you kindly repeat that for GUAGUGUAGUGAGGAUAUACGAGAUCGAUAGAUCGGCGAUCCAUAUAUACAUGAGGAUCACCCAUGUAGAAGGCACUUCACUAC ?
*A* 7.5 nM

*Q* Would you kindly repeat that for GGUGCAAUGUAGAAGGCAGAUCUGAUUCAGAUCUGAGGAUAUACAUGAGGAUCACCCAUGUUAUGCACCAGCACGAGAGUGCAA ?
*A* 6.57 nM

*Q* Would you kindly repeat that for AAUGUCUGAGGAUAUCGUUUUUUGUACAUGAGGAUCACCCAUGUCCAAUUUUGUAUAUUACGAGAAGGCAGUGGAA ?
*A* 14.9 nM

*Q* Would you kindly repeat that for AAUUACAGAGGAUAUGCGCGGUAAAACAUGAGGAUCACCCAUGUGAUACCUGCAUGACCGGCAGAAGGCUGCGUUU ?
*A* 22.3 nM

*Q* Would you kindly repeat that for GAUCAGAUAGGAUAUACAGGCUCGUCUUUAUAUUGAUCCCGACAUGAGGAUCACCCAUGUAGAAGGAUCAGAUC ?
*A* 16.4 nM

This collection of values is drawn from the EternaBench riboswitch data.
